These measurements were taken from patent US11576859B2.

experiment: physchem; conditions: pH 3, aqueous buffer, thermodynamic from solid
PROPERTY_LABEL: solubility (µg/mL)

• O=C1CCc2ccc(OCCCCN3CCN(c4cccc(Cl)c4Cl)CC3)cc2N1 = 120

====

test: physchem; conditions: pH 4.65, aqueous buffer, thermodynamic from solid
PROPERTY_LABEL: solubility (µg/mL)

• O=C1CCc2ccc(OCCCCN3CCN(c4cccc(Cl)c4Cl)CC3)cc2N1 = 110
